Recorded MIC50 values for a group of compounds are listed next.
- Test system: A. baumannii DSM 105126
- test_protocol: MIC 50, broth micro-dilution, DSM strains
- Assay type: cell-based, Acinetobacter baumannii
- cond: Acinetobacter baumannii, DSM105126, read-out: MIC 50
value_kind: MIC50

| compound | subject_of_test | value_kind | assay_result |
| --- | --- | --- | --- |
| N=C(NCCCN)NC1[C@@H](O)C(OC2[C@@H](F)[C@H](O[C@H]3OC(CN)[C@@H](O)CC3N)C(N)C[C@H]2NC(=O)[C@@H](O)CCN)O[C@H](CO)[C@H]1O (some centres unmarked) | A. baumannii DSM 105126 | MIC50 | 0.0312 to 0.0625 µM |
| N=C(N)NC1[C@@H](O)C(OC2[C@@H](F)[C@H](O[C@H]3OC(CN)[C@@H](O)[C@H](O)C3O)C(N)C[C@H]2NC(=O)[C@@H](O)CCN)O[C@H](CO)[C@H]1O (stereo partly drawn) [ABX3003, 3′epi-KanaA-AHB-F-Gua] | A. baumannii DSM 105126 | MIC50 | 0.0625 to 0.125 µM |

---

- System: E. coli ATCC25922 strain
- test_protocol: MIC 50, broth micro-dilution, wild-type Escherichia coli
- Type: cell-based
- cond: Escherichia coli, ATCC25922, 18 h, MH2, 18 h
Recorded MIC50 values for a group of compounds are listed next.

| compound | censoring_sign | MIC50 (µM) |
| --- | --- | --- |
| N=C(NCC1CCOC1)NC1[C@@H](O)C(OC2[C@@H](F)[C@H](O[C@H]3OC(CN)[C@@H](O)CC3N)C(N)C[C@H]2NC(=O)[C@@H](O)CCN)O[C@H](CO)[C@H]1O (some centres unmarked) | = | 0.5 |
| CNCCNC(=N)NC1[C@@H](O)C(OC2[C@@H](F)[C@H](O[C@H]3OC(CN)[C@@H](O)CC3N)C(N)C[C@H]2NC(=O)[C@@H](O)CCN)O[C@H](CO)[C@H]1O (some centres unmarked) | = | 0.25 |
| N=C(NCCCO)NC1[C@@H](O)C(OC2[C@@H](F)[C@H](O[C@H]3OC(CN)[C@@H](O)CC3N)C(N)C[C@H]2NC(=O)[C@@H](O)CCN)O[C@H](CO)[C@H]1O (some centres unmarked) [ABX5041, Tobra-AHB-F-Gua 3-hydroxy-propyl] | = | 0.5 |
| N=C(N)NC1C(O)[C@@H](CO)OC(OC2C(F)[C@H](O[C@H]3OC(CN)[C@@H](O)CC3N)C(N)C[C@H]2NC(=O)[C@@H](O)CCN)[C@@H]1O (some centres unmarked) | < | 0.25 |
| N=C(NC[C@H]1CCCNC1)NC1[C@@H](O)C(OC2[C@@H](F)[C@H](O[C@H]3OC(CN)[C@@H](O)CC3N)C(N)C[C@H]2NC(=O)[C@@H](O)CCN)O[C@H](CO)[C@H]1O (some centres unmarked) | = | 0.5 |

---

Recorded MIC50 values for a group of molecules are listed next.
- System: A. baumannii DSM 105126
- test_protocol: MIC 50, broth micro-dilution, DSM strains
- Format: cell-based, Acinetobacter baumannii
- cond: Acinetobacter baumannii, DSM105126, read-out: MIC 50
value_kind: MIC50 (µM)

| molecule | value_kind | display_unit | assay_result |
| --- | --- | --- | --- |
| N=C(N)NC1C(O)[C@@H](CO)OC(OC2C(F)[C@H](O[C@H]3OC(CN)[C@@H](O)CC3N)C(N)C[C@H]2NC(=O)[C@@H](O)CCN)[C@@H]1O (stereo partly drawn) | MIC50 | µM | 0.0625 |
| N=C(NCC1CCCO1)NC1[C@@H](O)C(OC2[C@@H](F)[C@H](O[C@H]3OC(CN)[C@@H](O)CC3N)C(N)C[C@H]2NC(=O)[C@@H](O)CCN)O[C@H](CO)[C@H]1O (stereo partly drawn) | MIC50 | µM | 0.25 |
| NCC[C@H](O)C(=O)N[C@@H]1C[C@H](N)[C@@H](O[C@H]2O[C@H](CN)[C@@H](O)[C@H](O)[C@H]2O)[C@H](O)[C@H]1O[C@H]1O[C@H](CO)[C@@H](O)[C@H](N)[C@H]1O [Amikacin, amikacin, reference compound] | MIC50 | µM | 0.5 |
| N=C(N)NC1[C@@H](O)C(OC2[C@@H](F)[C@H](O[C@H]3OC(CNCCO)[C@@H](O)CC3N)C(N)C[C@H]2NC(=O)[C@@H](O)CCN)O[C@H](CO)[C@H]1O (stereo partly drawn) [ABX5045, 6N-2-hydroxy-ethyl-Tobra-AHB-F-Gua] | MIC50 | µM | 0.5 |
| N=C(NC[C@H]1CCNC1)NC1[C@@H](O)C(OC2[C@@H](F)[C@H](O[C@H]3OC(CN)[C@@H](O)CC3N)C(N)C[C@H]2NC(=O)[C@@H](O)CCN)O[C@H](CO)[C@H]1O (stereo partly drawn) | MIC50 | µM | 0.0625 |

---

- System: clinical isolates of multidrug-resistant Klebsiella pneumoniae (and ATCC43816)
- test_protocol: MIC determination at Fidelta, clinical isolates
- Type: cell-based
- cond: Klebsiella pneumoniae, ATCC43816, KP-2033; Urine/OXA-A8
Recorded MIC90 values for a group of molecules are listed next.
value_kind: MIC90 (µg/mL)

| molecule | censoring_sign | assay_result |
| --- | --- | --- |
| CC(C)(O/N=C(\C(=O)N[C@@H]1C(=O)N2C(C(=O)[O-])=C(C[n+]3ccccc3)CS[C@H]12)c1csc(N)n1)C(=O)O [Ceftazidime, reference compound] | > | 64 |
| NC[C@H]1O[C@H](O[C@H]2[C@H](O)[C@@H](O[C@H]3O[C@H](CO)[C@@H](O)[C@H](N)[C@H]3O)[C@H](N)C[C@@H]2N)[C@H](N)C[C@@H]1O | > | 64 |
| NCC[C@H](O)C(=O)N[C@@H]1C[C@H](N)[C@@H](O[C@H]2O[C@H](CN)[C@@H](O)[C@H](O)[C@H]2O)[C@H](O)[C@H]1O[C@H]1O[C@H](CO)[C@@H](O)[C@H](N)[C@H]1O [Amikacin, amikacin, reference compound] | = | 2 |
| C[C@@H](O)[C@H]1C(=O)N2C(C(=O)O)=C(S[C@@H]3CN[C@H](C(=O)N(C)C)C3)[C@H](C)[C@H]12 [Meropenem, meropenem, reference compound] | = | 16 |

---

- Tested on: E. coli (AAC(3)IV)
- test_protocol: MIC 50, broth micro-dilution, E. coli expressing AAC(3)IV
- Assay type: cell-based, Escherichia coli
- cond: Escherichia coli, ATCC25922, ATCC25922 harboring plasmid encoding AAC(3)IV

| compound | MIC50 / µM |
| --- | --- |
| N=C(NC[C@H]1CNCCO1)NC1[C@@H](O)C(OC2[C@@H](F)[C@H](O[C@H]3OC(CN)[C@@H](O)CC3N)C(N)C[C@H]2NC(=O)[C@@H](O)CCN)O[C@H](CO)[C@H]1O (stereo partly shown) [ABX5043] | 1 |
| N=C(NCCO)NC1[C@@H](O)C(OC2[C@@H](F)[C@H](O[C@H]3OC(CN)[C@@H](O)CC3N)C(N)C[C@H]2NC(=O)[C@@H](O)CCN)O[C@H](CO)[C@H]1O (stereo partly shown) [ABX5029, Tobra-AHB-F-Gua 2-hydroxy-ethyl] | 2 |
| NCC[C@H](O)C(=O)N[C@@H]1C[C@H](N)[C@@H](O[C@H]2O[C@H](CN)[C@@H](O)[C@H](O)[C@H]2O)[C@H](O)[C@H]1O[C@H]1O[C@H](CO)[C@@H](O)[C@H](N)[C@H]1O [Amikacin, amikacin, reference compound] | 8 |
| N=C(NC[C@H]1CCCNC1)NC1[C@@H](O)C(OC2[C@@H](F)[C@H](O[C@H]3OC(CN)[C@@H](O)CC3N)C(N)C[C@H]2NC(=O)[C@@H](O)CCN)O[C@H](CO)[C@H]1O (stereo partly shown) [ABX5044] | 2 |
| N=C(N)NC1[C@@H](O)C(OC2[C@@H](F)[C@H](O[C@H]3OC(CNCCO)[C@@H](O)CC3N)C(N)C[C@H]2NC(=O)[C@@H](O)CCN)O[C@H](CO)[C@H]1O (stereo partly shown) [ABX5045, 6N-2-hydroxy-ethyl-Tobra-AHB-F-Gua] | 2 |
| N=C(NC[C@@H]1CCNC1)NC1[C@@H](O)C(OC2[C@@H](F)[C@H](O[C@H]3OC(CN)[C@@H](O)CC3N)C(N)C[C@H]2NC(=O)[C@@H](O)CCN)O[C@H](CO)[C@H]1O (stereo partly shown) [ABX5039] | 1 |
| N=C(N)NC1[C@@H](O)C(OC2[C@@H](F)[C@H](O[C@H]3OC(CN)[C@@H](O)[C@H](O)C3N)C(N)C[C@H]2NC(=O)[C@@H](O)CCN)O[C@H](CO)[C@H]1O (stereo partly shown) [ABX4006, KanaB-AHB-F-Gua] | 2 |
| N=C(N)NC1[C@@H](O)C(OC2[C@@H](F)[C@H](O[C@H]3OC(CN)[C@@H](O)[C@H](O)C3O)C(N)C[C@H]2NC(=O)[C@@H](O)CCN)O[C@H](CO)[C@H]1O (stereo partly drawn) [ABX3003, 3′epi-KanaA-AHB-F-Gua] | 4 |
| N=C(NCC1CCOC1)NC1[C@@H](O)C(OC2[C@@H](F)[C@H](O[C@H]3OC(CN)[C@@H](O)CC3N)C(N)C[C@H]2NC(=O)[C@@H](O)CCN)O[C@H](CO)[C@H]1O (stereo partly shown) [ABX5051] | 2 |

// data source = patent US20220127297A1
